ASSAYED_TARGET: Neu5Gc(a2-8)Neu5Gc(a2-6)Gal(b1-4)GlcNAc
TEST_DESCRIPTION: glycan array binding signal (z-score within array); higher = stronger binding
MEASUREMENT_SETUP: glycan notation: IUPAC condensed, linker removed
The full list was thinned out, with the strongest signals kept by preference.
QUANTITY_NAME: glycan array binding signal (z-score)
Answer with a bare number; do not write a unit.

# example entries with known answers
# BINDER, glycan array binding signal (z-score)
records = [
    ("DCIR1 (Mus musculus), Q9QZ15 (protein) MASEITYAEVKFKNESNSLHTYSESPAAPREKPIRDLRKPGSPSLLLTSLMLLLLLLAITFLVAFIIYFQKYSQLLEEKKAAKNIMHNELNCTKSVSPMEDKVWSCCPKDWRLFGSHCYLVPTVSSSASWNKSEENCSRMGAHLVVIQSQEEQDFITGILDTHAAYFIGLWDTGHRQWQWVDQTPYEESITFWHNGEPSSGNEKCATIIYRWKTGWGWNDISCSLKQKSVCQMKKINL", -0.802),
    ("Cohesin-marm-DC-ASGPR-CRD (protein) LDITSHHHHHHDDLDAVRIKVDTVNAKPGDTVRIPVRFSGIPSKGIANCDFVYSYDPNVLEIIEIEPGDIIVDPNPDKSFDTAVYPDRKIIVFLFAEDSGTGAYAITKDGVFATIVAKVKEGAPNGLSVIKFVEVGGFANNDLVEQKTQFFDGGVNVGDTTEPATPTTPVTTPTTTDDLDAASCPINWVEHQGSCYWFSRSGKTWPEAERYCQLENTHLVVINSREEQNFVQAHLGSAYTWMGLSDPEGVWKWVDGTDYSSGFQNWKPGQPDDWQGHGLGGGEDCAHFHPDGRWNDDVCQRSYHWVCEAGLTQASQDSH", -0.447),
    ("EULS2 M1 (Oryza sativa) (protein) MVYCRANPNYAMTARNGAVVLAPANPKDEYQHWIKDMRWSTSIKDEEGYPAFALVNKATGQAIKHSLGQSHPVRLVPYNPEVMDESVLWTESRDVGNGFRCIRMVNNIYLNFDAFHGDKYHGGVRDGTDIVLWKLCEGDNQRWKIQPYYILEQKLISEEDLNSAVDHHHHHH", -0.158),
    ("EUL D1A (Oryza sativa) (protein) MFGFGHHHNQAPAAPSDPNQIFKIFCRANENYCLTVRDSAVVLAPVNPKDEHQHWFKDMRFSTKVKDGEGMPAFALVNKATGLAVKHSLGQSHPVKLVPFNPEYEDASVLWTESKDVGKGFRCIRMVNNTRLNLDAFHGDKDHGGVRDGTTVVLWEWCKGDNQSWKILPWGPEAHSSSPGAATACTIGGVPVHTVRVFSAAGEDYCLTVRNGTACLAPKNPRDDYQHWIKDMRHSNKIRDEEGYPAFALVNKVTGEAIKHSTGQGHPVKLVPYNPEYQDESVLWTESKDVGKGFRCIRMVNNIYLNFDAFHGDKDHGGIHDGTEIVLWKWCEGDNQRWKILPWILEQKLISEEDLNSAVDHHHHHH", -0.137),
    ("Tamarinin (protein) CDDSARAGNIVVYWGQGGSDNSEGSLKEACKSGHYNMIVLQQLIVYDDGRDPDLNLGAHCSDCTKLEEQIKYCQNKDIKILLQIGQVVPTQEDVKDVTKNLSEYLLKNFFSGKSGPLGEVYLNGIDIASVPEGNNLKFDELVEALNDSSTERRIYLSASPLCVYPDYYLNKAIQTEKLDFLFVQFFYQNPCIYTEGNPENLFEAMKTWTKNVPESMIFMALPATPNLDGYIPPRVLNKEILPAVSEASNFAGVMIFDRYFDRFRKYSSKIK", -0.477),
    ("MGL (Homo sapiens), Q8IUN9 (protein) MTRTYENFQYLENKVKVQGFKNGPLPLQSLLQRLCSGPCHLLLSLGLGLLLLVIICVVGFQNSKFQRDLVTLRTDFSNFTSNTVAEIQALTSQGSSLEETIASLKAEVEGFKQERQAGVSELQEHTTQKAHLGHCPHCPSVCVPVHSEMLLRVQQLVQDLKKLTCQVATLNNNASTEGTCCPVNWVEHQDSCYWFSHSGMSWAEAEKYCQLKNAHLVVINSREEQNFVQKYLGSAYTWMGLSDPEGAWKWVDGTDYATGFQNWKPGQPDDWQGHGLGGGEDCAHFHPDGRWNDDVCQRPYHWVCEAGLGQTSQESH", -0.246),
]

Documented glycan array binding signal (z-score) of Erv41-EDTA (Saccharomyces cerevisiae), Q04651 (protein) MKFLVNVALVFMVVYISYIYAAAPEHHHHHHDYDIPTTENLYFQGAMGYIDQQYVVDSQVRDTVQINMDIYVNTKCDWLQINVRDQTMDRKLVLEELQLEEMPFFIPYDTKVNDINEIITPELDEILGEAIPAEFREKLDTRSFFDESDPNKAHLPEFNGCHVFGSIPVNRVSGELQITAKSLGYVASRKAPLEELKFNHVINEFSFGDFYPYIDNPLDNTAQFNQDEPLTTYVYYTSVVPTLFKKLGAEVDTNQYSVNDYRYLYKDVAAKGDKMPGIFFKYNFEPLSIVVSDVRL : 1.14

Documented glycan array binding signal (z-score) of Mermaid1 (Stilbonema majum) (protein) MGSSHHHHHHSSGLVPRGSHMAASGWLRSPQGTVVKLYRRSLSWSKADEFCKDVDGRLVVDRTADMHLFLIKNVLKEKKSRVWVGLRRTAPHSRTWIWSDGTRQNEDDLDANLWLRDEPNDAAGEEECALFMYSPWEKAWGLNDYLCRGGCRSYQFICEKWIR : 0.03

Documented glycan array binding signal (z-score) of PpFlo2 (Pichia pastoris) (protein) MGSSHHHHHHSSGLVPRGSHMDDSGNGDNSDTAYGCDITTNAVDGFDATIYQYNANDLRLIRDPTFMSTGYLGRNVLNKISGVTVPGFNIWNPSSRTATVYGVKNVNYYNMVLELKGYFKADVSGDYKLTLSHIDDSSMLFFGKETAFKCCDAGSIPLNEAPTDYSLFTIKPSNQVNSEVISATQYLEAGKYYPVRIVFVNALERARFDFKLTIPSGAVLDDFQNYIYQFGDLDENSCHE : -0.273
